Documented EC50 across a set of molecules
# Study Target: rat mGlu2 receptor (Rattus norvegicus (Rat), UniProt P31421)
# Sequence (P31421 19-872): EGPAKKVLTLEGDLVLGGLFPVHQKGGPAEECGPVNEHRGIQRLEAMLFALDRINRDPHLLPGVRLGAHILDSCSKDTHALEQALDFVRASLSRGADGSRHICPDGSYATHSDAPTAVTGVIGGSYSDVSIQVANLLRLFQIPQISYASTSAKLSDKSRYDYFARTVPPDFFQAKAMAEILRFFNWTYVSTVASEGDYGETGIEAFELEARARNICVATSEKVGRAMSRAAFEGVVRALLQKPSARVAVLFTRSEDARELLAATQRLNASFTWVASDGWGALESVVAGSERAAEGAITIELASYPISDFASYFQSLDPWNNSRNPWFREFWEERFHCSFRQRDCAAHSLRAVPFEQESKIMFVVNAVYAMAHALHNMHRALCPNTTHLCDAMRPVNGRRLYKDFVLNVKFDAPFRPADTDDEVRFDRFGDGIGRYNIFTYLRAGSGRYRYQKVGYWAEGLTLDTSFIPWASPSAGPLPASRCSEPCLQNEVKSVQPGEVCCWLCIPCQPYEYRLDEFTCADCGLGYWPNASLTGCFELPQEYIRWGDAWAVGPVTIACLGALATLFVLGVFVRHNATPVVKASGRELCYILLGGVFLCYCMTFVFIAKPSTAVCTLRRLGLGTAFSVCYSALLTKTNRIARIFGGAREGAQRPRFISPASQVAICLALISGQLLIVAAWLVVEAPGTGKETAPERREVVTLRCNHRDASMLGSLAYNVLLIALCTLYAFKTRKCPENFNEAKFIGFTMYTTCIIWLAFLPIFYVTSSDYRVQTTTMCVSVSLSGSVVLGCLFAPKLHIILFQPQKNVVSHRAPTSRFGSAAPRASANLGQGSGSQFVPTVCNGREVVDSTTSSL
# Assay Notes: mGlu2 in vitro GIRK thallium flux assay
# Type: cell-based
# Test Conditions: NAM; 2.5 min compound incubation; EC80 glutamate; HEK-293 GIRK cells; read-out: mGlu2 EC50 (μM) (2.5 min)

> print(dat)
                                   molecule  measured.property  measurement
1  N#Cc1cccc(-c2cccc(-c3csc(-c4ccccc4)n3)c2)c1 [Example 14]               EC50      > 30 µM
2  O=C(O)c1cc(-c2cccc(-c3cnc(-c4ccccc4)s3)c2)ccc1F [Example 3]               EC50      > 30 µM

Output EC50 of O=C1CC(c2ccnc(Cl)c2)=Nc2ccc(-c3ccccc3)cc2N1 [Example 197] > 10 µM

Hey, just so you know, these numbers are from patent US9969726B2.
